FYI, the data here is from patent US7332504B2.

molecules and their reported melting point
Structures can show the parent of a compound that is named as a salt.

# Molecule, melting point
rows = [
    ("CN[C@@H]1CCN(c2ccc(Cl)nc2)C1 (as salt: hydrochloride) [Example 5]", "265 °C (dec.)"),
    ("CN[C@@H]1CCCN(c2ccc(Cl)nc2)C1.Cl.Cl [Example 48]", "103 to 105 °C"),
    ("N[C@H]1CCN(c2ccc(Cl)nc2)C1 (as salt: hydrochloride) [Example 2, dihydrochloride]", "> 250 °C"),
]

Given the molecule N[C@@H]1CCN(c2ccc(Cl)nc2)C1 (as salt: benzenesulfonate) [Example 4] , write its reported melting point.
224.5 to 225.5 °C

// Input: CN[C@H]1CCN(c2cncc([N+](=O)[O-])c2)C1 (as salt: fumarate) [Example 30] . Output its melting point only.
183 to 185 °C

Tell me melting point reported for CN[C@@H]1CCN(c2cncc([N+](=O)[O-])c2)C1 (as salt: fumarate) [Example 32]
184 to 185 °C

Output melting point of CN[C@H]1CCN(c2cncc(C(F)(F)F)c2)C1 (as salt: hydrochloride) [Example 14]
240 to 243 °C (dec.)

Please look at this molecule and report its melting point: CN[C@H]1CCCN(c2cnc(Cl)c(C)c2)C1.Cl [Example 49]
75 to 77 °C

Give melting point for CN[C@H]1CCN(c2ccc(Cl)nc2)C1 (as salt: hydrochloride) [Example 1]
> 250 °C

Indicate the recorded melting point value for this molecule: CN[C@H]1CCCN(c2ccc(Cl)nc2)C1 (as salt: hydrochloride) [Example 46, dihydrochloride]
120 to 122 °C

* * *

Counter-ions that a name gives are not always drawn.
Measured Metric: melting point

Guide cases for melting point, answers given:
# Compound, melting point
data = [
    ("CN[C@@H]1CCN(c2cncc(C(F)(F)F)c2)C1 (as salt: hydrochloride) [Example 12]", "265 °C (dec.)"),
    ("N[C@H]1CCN(c2cncc([N+](=O)[O-])c2)C1 (as salt: fumarate) [Example 29]", "213 to 214 °C"),
    ("N[C@H]1CCCN(c2cccnc2)C1 (as salt: benzenesulfonate) [Example 41]", "64 to 66 °C"),
    ("N[C@@H]1CCN(c2cncc(C(F)(F)F)c2)C1 (as salt: hydrochloride) [Example 11, dihydrochloride]", "234 to 235 °C"),
    ("N[C@@H]1CCN(c2cncc([N+](=O)[O-])c2)C1 (as salt: fumarate) [Example 31]", "212 to 213 °C"),
    ("CN(C)[C@H]1CCN(c2ccc(Cl)nc2)C1 (as salt: benzenesulfonate) [Example 3]", "190 to 191.5 °C"),
    ("N[C@H]1CCCN(c2ccc(Cl)nc2)C1 (as salt: benzenesulfonate) [Example 45]", "182 to 184 °C"),
]

Now for another entry.
Give a short answer stating reported melting point for N[C@H]1CCN(c2cncc(C(F)(F)F)c2)C1 (as salt: hydrochloride) [Example 13, dihydrochloride] .
235 to 236 °C

* * *

Target: neuronal nicotinic acetylcholine receptors (Rattus norvegicus, UniProt P09483+P12390)
Construct: crude synaptic membrane preparations from whole rat brain; from tissue; host or cells: whole rat brain, crude synaptic membranes
Sequence (P09483 31-630): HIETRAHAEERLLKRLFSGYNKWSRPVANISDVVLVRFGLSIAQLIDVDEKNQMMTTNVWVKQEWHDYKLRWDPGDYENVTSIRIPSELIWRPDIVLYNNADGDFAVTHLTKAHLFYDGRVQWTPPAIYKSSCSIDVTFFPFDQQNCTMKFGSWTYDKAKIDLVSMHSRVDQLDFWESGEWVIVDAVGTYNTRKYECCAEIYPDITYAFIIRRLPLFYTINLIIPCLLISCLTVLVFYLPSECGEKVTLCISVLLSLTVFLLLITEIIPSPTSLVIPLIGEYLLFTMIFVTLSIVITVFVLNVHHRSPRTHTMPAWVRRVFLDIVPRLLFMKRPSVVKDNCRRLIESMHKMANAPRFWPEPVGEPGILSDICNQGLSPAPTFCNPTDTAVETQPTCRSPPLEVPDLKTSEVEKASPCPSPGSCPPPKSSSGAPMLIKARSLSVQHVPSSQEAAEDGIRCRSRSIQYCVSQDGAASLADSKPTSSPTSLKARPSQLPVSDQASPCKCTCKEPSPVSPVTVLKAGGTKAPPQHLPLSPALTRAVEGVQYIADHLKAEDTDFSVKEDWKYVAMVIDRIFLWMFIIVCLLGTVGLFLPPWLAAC
Sequence (P12390 25-500): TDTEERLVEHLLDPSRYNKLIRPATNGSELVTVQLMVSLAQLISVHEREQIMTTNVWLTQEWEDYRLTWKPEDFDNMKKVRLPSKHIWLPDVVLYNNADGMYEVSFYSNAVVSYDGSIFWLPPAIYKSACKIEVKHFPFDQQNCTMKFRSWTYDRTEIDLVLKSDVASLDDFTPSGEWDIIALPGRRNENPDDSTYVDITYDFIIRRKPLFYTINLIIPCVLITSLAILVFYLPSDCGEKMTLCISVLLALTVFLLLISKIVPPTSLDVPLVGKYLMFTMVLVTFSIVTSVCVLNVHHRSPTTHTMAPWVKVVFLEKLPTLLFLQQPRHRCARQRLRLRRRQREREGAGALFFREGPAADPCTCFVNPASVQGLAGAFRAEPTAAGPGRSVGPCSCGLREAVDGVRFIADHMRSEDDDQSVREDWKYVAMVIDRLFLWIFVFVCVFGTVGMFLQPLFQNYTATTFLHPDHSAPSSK
Test: Binding of [3H]-cytisine to neuronal nicotinic acetylcholine receptors, crude synaptic membranes from whole rat brain
Counter-ions that a name gives are not always drawn.
Entries are sorted into classes by Ki as follows: band 1 = under 0.5 nM, band 2 = from 0.5 nM up to 5 nM, band 3 = 5 nM and over

# Compound, Label Value
records = [
    ("N[C@H]1CCCN(c2cccnc2)C1", "band 2"),
    ("CN[C@H]1CCN(c2cnc(Cl)c(Cl)c2)C1 [Example 20, hydrochloride]", "band 2"),
    ("N[C@H]1CCN(c2ccc(Cl)nc2)C1 [Example 2, dihydrochloride]", "band 1"),
    ("N[C@@H]1CCN(c2cncc(C(F)(F)F)c2)C1 [Example 11, dihydrochloride]", "band 2"),
    ("Cc1cc(N2CC[C@H](N)C2)cnc1Cl [Example 17, dihydrochloride]", "band 1"),
    ("CN[C@@H]1CCN(c2cncc([N+](=O)[O-])c2)C1", "band 3"),
    ("CN(C)[C@@H]1CCN(c2ccc(Cl)nc2)C1", "band 3"),
    ("C[C@H]1CCN(c2ccc(Cl)nc2)C[C@H]1N (relative stereo) [Example 39, hydrochloride]", "band 3"),
]

Where would CN[C@H]1CCN(c2cccnc2)C1 [Example 9, dihydrochloride] land among the classes by reported Ki?
band 2

Which bin should I file N[C@H]1CCCN(c2ccc(Cl)nc2)C1 under?
band 1

Which bin, given its Ki, does N[C@H]1CCN(c2cccnc2)C1 occupy?
band 1

Please indicate the class for CN[C@@H]1CCN(c2ccc(Cl)nc2)C1 [Example 5, hydrochloride] based on its Ki.
band 3

Sort into band: N[C@H]1CCN(c2cncc(C(F)(F)F)c2)C1 [Example 13, dihydrochloride]
band 2

Bin? CN[C@H]1CCCN(c2cnc(Cl)c(C)c2)C1.Cl [Example 49, hydrochloride]
band 2

The entry to classify is CN[C@H]1CCN(c2cncc(C(F)(F)F)c2)C1 [Example 14, hydrochloride] ; which class holds it?
band 3

Input CN[C@@H]1CCCN(c2ccc(Cl)nc2)C1.Cl.Cl [Example 48, dihydrochloride] ; output its category
band 3

* * *

Biological target: neuronal nicotinic acetylcholine receptors (Rattus norvegicus, UniProt P09483+P12390)
Construct: crude synaptic membrane preparations from whole rat brain; from tissue; host or cells: whole rat brain, crude synaptic membranes
Test: Binding of [3H]-cytisine to neuronal nicotinic acetylcholine receptors, crude synaptic membranes from whole rat brain
Conditions: [3H]-cytisine 1.25 nM, whole rat brain membranes, 60 minutes at 4° C.; Ki from IC50 by Cheng and Prusoff correction; read-out: Average Ki
Counter-ions that a name gives are not always drawn.
Measured Metric: Ki (nM)
Your answer should be a plain number; it is taken to be in nM.

Reference set (2 entries):
# Compound, Target, Observed
data = [
    ("NC1CCN(c2ccc(Cl)nc2)CC1 [Example 37, 4-methylbenzenesulfonate]", "neuronal nicotinic acetylcholine receptors (Rattus norvegicus, UniProt P09483+P12390)", 92),
    ("CN[C@@H]1CCN(c2cncc(C(F)(F)F)c2)C1 [Example 12, hydrochloride]", "neuronal nicotinic acetylcholine receptors (Rattus norvegicus, UniProt P09483+P12390)", 114),
]

We next turn to a different compound, shown below.
Indicate the recorded Ki value for this compound: NC1CN(c2ccc(Cl)nc2)C1 [Example 50, 4-methylbenzenesulfonate]
174

* * *

Target: neuronal nicotinic acetylcholine receptors (Rattus norvegicus, UniProt P09483+P12390)
Construct: crude synaptic membrane preparations from whole rat brain; from tissue; host or cells: whole rat brain, crude synaptic membranes
Assay: Binding of [3H]-cytisine to neuronal nicotinic acetylcholine receptors, crude synaptic membranes from whole rat brain
Counter-ions that a name gives are not always drawn.
// reported pKi for each item listed
Scale for pKi: -log10 of concentration given in mol/L; no unit attached.

For orientation, consider the following solved cases.
# Compound, Observed
data = [
    ("NC1CCCN(c2ccc(Cl)nc2)C1 (stereo not drawn) [Example 38, 4-methylbenzenesulfonate]", 9.29),
    ("CN[C@@H]1CCN(c2cnc(Cl)c(C)c2)C1 [Example 16, dihydrochloride]", 8.29),
    ("Cc1cc(N2CC[C@@H](N)C2)cnc1F [Example 27, hydrochloride]", 9.36),
    ("NC1CCN(c2cccnc2)C1 (stereo not drawn) [Example 10, bis(4-methylbenzenesulfonate)]", 9.82),
    ("CN[C@@H]1CCN(c2cnc(F)c(C)c2)C1 [Example 28, dihydrochloride]", 7.41),
    ("CN[C@H]1CCN(c2cnc(Cl)c(C)c2)C1 [Example 18, dihydrochloride]", 9.24),
]

Supply recorded pKi for NC1CCN(c2ccc(Cl)nc2)C1 (stereo not drawn) [Example 7, 4-methylbenzenesulfonate] here.
9.92

Complete the entry with pKi for CN[C@H]1CCCN(c2ccc(Cl)nc2)C1 [Example 46, dihydrochloride]
7.22

Retrieve pKi measured for CN[C@H]1CCN(c2ccc(Cl)nc2)C1 [Example 1, hydrochloride] and print it.
7.36

* * *

Biological target: neuronal nicotinic acetylcholine receptors (Rattus norvegicus, UniProt P09483+P12390)
Construct: crude synaptic membrane preparations from whole rat brain; from tissue; host or cells: whole rat brain, crude synaptic membranes
Experiment: Binding of [3H]-cytisine to neuronal nicotinic acetylcholine receptors, crude synaptic membranes from whole rat brain
Protocol: The In Vitro protocols for determination of nicotinic acetylcholine channel receptor binding potencies of ligands were determined as follows. […] Homogenate (containing 125-150 μg protein) was added to triplicate tubes containing the range of concentrations of test compound described above and [^3H]-CYT (1.25 nM) in a final volume of 500 μL. […] The filter are counted in 4 mL of Ecolume® (ICN). […]
Where a name gives a salt, the structure may show the parent alone.
A collection of compounds and their measured Ki
Write the number in nM without appending the unit.

Some compounds with recorded Ki:
# Compound, Quantity Unit, Ki
measured = [
    ("N[C@@H]1CCN(c2cncc([N+](=O)[O-])c2)C1", "nM", 3.5),
    ("N[C@H]1CCN(c2cncc([N+](=O)[O-])c2)C1", "nM", 0.7),
    ("CN[C@@H]1CCCN(c2cccnc2)C1 [Example 44, dihydrochloride]", "nM", 205),
]

Proceeding to the next compound to report its Ki.
Provide only the value of recorded Ki for CN[C@H]1CCN(c2cnc(Cl)c(OC)c2)C1 [Example 24, dihydrochloride]
4.1
